# Test system: L1210 leukemia ip in BDF1 mice, survival T/C
# ASSAY NAME: NCI In Vivo Anticancer Drug Screen. Data for tumor model L1210 Leukemia (intraperitoneal) in B6D2F1 (BDF1) mice
# MEASUREMENT CONTEXT: endpoint: mean survival time; dose: 50.0 mg/kg/injection; schedule: Q01DX009 (ip); vehicle: saline; higher = longer survival
Toxic doses and inconclusive results are not listed.
Could you please report measured T/C for the items listed next?

The examples below pair each entry with its known result.
{"MOLECULE": "CC(C)n1cc2c(N)ncnc2n1", "OBSERVED RESULT": "117 % of control"}
{"MOLECULE": "NCCc1cc(O)c(O)c(O)c1", "OBSERVED RESULT": "104 % of control"}
{"MOLECULE": "N/C=N/O", "OBSERVED RESULT": "111 % of control"}
{"MOLECULE": "CCN(CC)CCC(=O)c1ccccc1", "OBSERVED RESULT": "97 % of control"}

Items follow; give T/C for each.
1. NCc1ccc([N+](=O)[O-])cc1
2. CCN(CC)CC(=O)NC(CCN(C)C)(c1cccc2ccccc12)C(C)C (stereo not given)
3. CCCCNCCO
4. CN(C)CCCNc1ccc(O)c2c1C(=O)c1ccccc1C2=O

Outgoing:
93 % of control
94 % of control
100 % of control
100 % of control

Need T/C for each of these molecules.
1. CC(N)Cc1cn(C)c2ccccc12 (stereo not given)
2. CCN(C1CCCCC1)C1CCCCC1
3. CC(C)C(NCCNC(C(C)C)C(C)C)C(C)C
4. Cc1cc(N2CCC(N3CCCC3)CC2)nc(/N=C(\N)Nc2ccc(Cl)c(Cl)c2)n1
5. CN1CCC(OC2c3ccccc3CCc3ccccc32)CC1
6. CC(C)(CCCl)NCc1ccccc1
7. CCC(C)N(CCCOC(=O)c1ccc(N)cc1)C(C)CC (stereo not given)

Outgoing:
1. 105 % of control
2. 98 % of control
3. 106 % of control
4. 98 % of control
5. 117 % of control
6. 104 % of control
7. 97 % of control

====

I'd be grateful if you could share measured T/C for these entries.
# System: L1210 leukemia ip in BDF1 mice, survival T/C
# ASSAY NAME: NCI In Vivo Anticancer Drug Screen. Data for tumor model L1210 Leukemia (intraperitoneal) in B6D2F1 (BDF1) mice
# MEASUREMENT CONTEXT: endpoint: mean survival time; dose: 200.0 mg/kg/injection; schedule: Q04DX003 (ip); vehicle: acetone; higher = longer survival
# Protocol: The antitumor activity of compounds was measured in mice bearing transplantable tumors. Survival or tumor size were measured and the results are expressed as the measurement made in the treated group (T) divided by the measurement made in the vehicle treated control group (C). The tumor model used in this assay is L1210 Leukemia (intraperitoneal) in B6D2F1 (BDF1) mice
Toxic doses and inconclusive results are not listed.

Examples from the recorded data:
{"COMPOUND": "CCCN=C(C)c1ccccc1O", "TESTED ON": "L1210 leukemia ip in BDF1 mice, survival T/C", "T/C": "95 % of control"}
{"COMPOUND": "CSCc1cccc(CO)c1", "TESTED ON": "L1210 leukemia ip in BDF1 mice, survival T/C", "T/C": "106 % of control"}

For every item in the list below, what is its measured T/C?
1. CNc1nc(N)nc(Nc2ccc(I)cc2)c1N=O
2. O=C(Oc1ccccc1)C(Cl)(Cl)Cl

Outgoing:
["105 % of control", "98 % of control"]

List reported T/C for each of these compounds:
1. CC(=O)OC1CCC2(C)C(C)CC3C(=O)OC32C1 (stereo unspecified)
2. CCn1c(C)nc2cc(Cl)c([N+](=O)[O-])cc21

Outgoing:
1: 90 % of control; 2: 93 % of control

====

# Test system: L1210 leukemia ip in BDF1 mice, survival T/C
# ASSAY NAME: NCI In Vivo Anticancer Drug Screen. Data for tumor model L1210 Leukemia (intraperitoneal) in B6D2F1 (BDF1) mice
# MEASUREMENT CONTEXT: endpoint: mean survival time; dose: 200.0 mg/kg/injection; schedule: Q04DX002 (ip); vehicle: saline; higher = longer survival
Inconclusive results and toxic doses are left out.
Consider the following compounds; for each one, report its T/C.

Solved cases below.
{"COMPOUND": "Nc1nnnn1CC(Br)CBr (stereo unspecified)", "T/C": "101 % of control"}
{"COMPOUND": "CCCCCCOC(=O)C1(C)OC1c1ccccc1 (stereo unspecified)", "T/C": "104 % of control"}
{"COMPOUND": "CC1CCCN(C(=O)/C=C/c2ccccc2)C1 (stereo unspecified)", "T/C": "97 % of control"}
{"COMPOUND": "C=C(C)CC(O)CCCCC (stereo unspecified)", "T/C": "102 % of control"}
{"COMPOUND": "NC(=O)NC1CON(C(N)=O)C1=O (stereo unspecified)", "T/C": "112 % of control"}
{"COMPOUND": "CCCCOC1OCN(C(C)(C)C)CC1(C)C (stereo unspecified)", "T/C": "112 % of control"}
{"COMPOUND": "CCCCCCC(=O)N(CC)CC", "T/C": "98 % of control"}
{"COMPOUND": "O=C(O)c1ccc(F)c([N+](=O)[O-])c1", "T/C": "113 % of control"}
{"COMPOUND": "C/C=C\\C=C\\COC(=O)CC(C)C", "T/C": "103 % of control"}
{"COMPOUND": "CC(=O)ON1CCC=NC1", "T/C": "91 % of control"}

Required: T/C, one value per compound below.
1. O=C1C2C3CCC(O3)C2C(=O)N1CCO (stereo unspecified)
2. CCCCC(=O)N(CCC)CCC
3. Nc1ccc2cc(S(=O)(=O)O)cc(S(=O)(=O)O)c2c1

Outgoing:
106 % of control
104 % of control
102 % of control

Okay, here is my list. What is T/C for each of these?
1. CCCCCCCCC(=O)N1CCCC(C)C1 (stereo unspecified)
2. CC1=NN=S(CC2=C(C(=O)O)N3C(=O)C(NC(=O)C[n+]4cc(=O)o[nH]4)C3SC2)S1 (stereo unspecified)

Outgoing:
1: 117 % of control; 2: 114 % of control

Incoming: Recorded T/C for Clc1ccccc1C(N1CCCCC1)N1CCCCC1 , please?
Outgoing: 92 % of control

====

# Test system: L1210 leukemia ip in BDF1 mice, survival T/C
# ASSAY NAME: NCI In Vivo Anticancer Drug Screen. Data for tumor model L1210 Leukemia (intraperitoneal) in B6D2F1 (BDF1) mice
# MEASUREMENT CONTEXT: endpoint: mean survival time; dose: 400.0 mg/kg/injection; schedule: Q04DX002 (ip); vehicle: saline; higher = longer survival
Toxic doses and inconclusive results are not listed.
METRIC: T/C

Illustrative cases are given below, each with its answer.
{"MOLECULE": "Cn1[nH]c(=O)c2ncccc2c1=O", "METRIC": "T/C", "OBSERVED RESULT": "97 % of control"}
{"MOLECULE": "Cn1c2ccc(Cl)cc2c2nnc(NCCCO)nc21", "METRIC": "T/C", "OBSERVED RESULT": "93 % of control"}
{"MOLECULE": "O=C1C=CC(=O)C2C3c4ccccc4C(c4ccccc43)C12 (stereo unspecified)", "METRIC": "T/C", "OBSERVED RESULT": "90 % of control"}
{"MOLECULE": "CCCCC(=O)N(CCC)CCC", "METRIC": "T/C", "OBSERVED RESULT": "104 % of control"}
{"MOLECULE": "CCCCCCC(=O)N(CC)CC", "METRIC": "T/C", "OBSERVED RESULT": "91 % of control"}

Incoming: Requested read-out: T/C. Entry: CC(=O)c1ccc(C#N)cc1.[Co+3].[NH2-].[NH2-].[NH2-].[NH2-].[NH2-].[O-][Cl+3]([O-])([O-])O
Outgoing: 108 % of control

====

# Test system: L1210 leukemia ip in BDF1 mice, survival T/C
# ASSAY NAME: NCI In Vivo Anticancer Drug Screen. Data for tumor model L1210 Leukemia (intraperitoneal) in B6D2F1 (BDF1) mice
# MEASUREMENT CONTEXT: endpoint: mean survival time; dose: 400.0 mg/kg/injection; schedule: Q01DX009 (ip); vehicle: saline with Tween-80; higher = longer survival
Inconclusive results and toxic doses are left out.
METRIC: T/C

Solved entries (count: 2):
{"COMPOUND": "NNC(=O)c1nc(N)n[nH]1", "TESTED ON": "L1210 leukemia ip in BDF1 mice, survival T/C", "T/C": "109 % of control"}
{"COMPOUND": "CCCOC(=O)C1OC12CCCCC2 (configuration not stated)", "TESTED ON": "L1210 leukemia ip in BDF1 mice, survival T/C", "T/C": "103 % of control"}

Could I get T/C for every one of these entries?
1. FC(F)(F)c1nc2nc(Cl)c(Cl)nc2n1CCCN1CCOCC1
2. CCC1(CC)COC(C)(C(=O)O)OC1

Outgoing:
1. 103 % of control
2. 90 % of control

Could you report T/C for every entry in the following list?
1. CC(Br)C(=O)NC(C)C(=O)O (configuration not stated)
2. COc1ccc(C(=O)CC(C#N)c2ccc3c(c2)OCO3)cc1OC (configuration not stated)
3. O=C1OC(c2ccccc2)(c2ccccc2)c2cccc3cccc1c23
4. CCCCN(CC)/N=N/c1nc[nH]c1C(N)=O

Outgoing:
1. 91 % of control
2. 96 % of control
3. 91 % of control
4. 88 % of control

Please give T/C, item by item, for the list that follows.
1. O=[N+]([O-])CC(Nc1ccc(Br)cc1)c1ccccc1 (configuration not stated)
2. COC(=O)C(C)NC(=O)CNC(=O)OCc1ccccc1 (configuration not stated)
3. CCCCC(CC)C(O)CC(O)CC (configuration not stated)
4. O=C(Sc1ccccc1-n1cccc1)c1ccccc1
5. CC1(C)OCC(CO)O1 (configuration not stated)

Outgoing:
["86 % of control", "92 % of control", "95 % of control", "102 % of control", "104 % of control"]

Quick request: T/C for each listed item, please.
1. N#CN(Cc1ccc(Cl)cc1Cl)C(=O)OCOc1ccc(Cl)cc1
2. O=C1OC(OC(=O)c2ccccc2)C(NC2CCCCC2)=C1Br (configuration not stated)
3. CC1C2C=CC1C(c1c3ccc(=O)cc-3oc3cc(O)ccc13)C2C(=O)O (configuration not stated)
4. NC(=S)c1ccncc1
5. COC1OC2COC(c3ccccc3)OC2C(N=Cc2ccccc2)C1O (configuration not stated)
6. CCOC(=O)OCCCN(C)C
7. CSc1ccc(NC(=O)Nc2ccc(S(N)(=O)=O)cc2)cc1

Outgoing:
1. 107 % of control
2. 98 % of control
3. 104 % of control
4. 112 % of control
5. 98 % of control
6. 90 % of control
7. 102 % of control

Okay, here is my list. What is T/C for each of these?
1. Cc1cccnc1NS(=O)(=O)c1ccccc1
2. Cc1cc(=O)[nH]c(Nc2nc3cc(Cl)c(Cl)cc3[nH]2)n1
3. O=C(Nc1cccc([N+](=O)[O-])c1)Oc1ccc(-c2ccccc2)cc1
4. COc1ccccc1OC(=O)Nc1cc([N+](=O)[O-])ccc1C

Outgoing:
102 % of control
97 % of control
94 % of control
121 % of control

Consider the following items and state reported T/C for each.
1. CCC1CCCCC1=O (configuration not stated)
2. Cc1ccc(C2(C#N)CC2)cc1
3. Fc1ccc(C=Nc2cccc(Cl)c2)cc1

Outgoing:
1: 101 % of control; 2: 112 % of control; 3: 100 % of control
